Origin of measurements: patent US20070003608A1

Item-by-item account of CC50 at 5 days
Assay: Cytotoxicity in vitro in MRC-5 human lung fibroblast cells, visual estimate of 50% reduction in cell number
Conditions: human, MRC-5 human lung fibroblast cells
measurementLabel: CC50 at 5 days (µM)

[[record]]
compound = "Nc1ncnc2c1ncn2CCOCP(=O)(O)O [Adefovir, adefovir, reference compound]"
modifiersign = ">"
measuredvalue = 1000

[[record]]
compound = "CCCCCCCCCCCCCCCCOCCCOP(=O)(O)COC(CO)Cn1ccc(N)nc1=O (centres unmarked)"
modifiersign = "="
measuredvalue = 10


---

Test system: human lung fibroblast cells (MRC-5)
Test: Cytotoxicity in vitro in MRC-5 human lung fibroblast cells, visual estimate of 50% reduction in cell number
Settings: MRC-5 cells, 5 days; Table 2
measurementLabel: CC50 (µM)

[[record]]
molecule = "CCCCCCCCCCCCCCCCOP1(=O)CO[C@@H](Cn2ccc(N)nc2=O)CO1 (some centres unmarked)"
unittag = "µM"
measuredvalue = 6.5

[[record]]
molecule = "CCCCCCCCCCCCCCCCCCOCCCOP(=O)(O)COC(CO)Cn1ccc(N)nc1=O (centres unmarked)"
unittag = "µM"
measuredvalue = 32

